src = patent US20090208538A1

Biological target: HLA-A*1501 (human)
Assay: iTopia net score
measurement-type: iScore

binder	measurement-type	numeric-readout
MRQMLQSEH [cdr2 257-265 …]	iScore	0.075

I = QQLGATGAY [cdr2 235-243 …]
II = PSFACLKEL [cdr2 156-164 …]
# query: argmin of iScore over I and II Answer with the label corresponding to your selection.
II

1 = YDLRQHFVY [cdr2 165-173 …]
2 = RQKRVTMEE [cdr2 213-221 …]
iScore comparison. Which is larger, 1 or 2 ? Answer with the label corresponding to your selection.
1
(1: 0.098, 2: 0.065)
